Reference source: patent US11034672B1

- tested system: HER2 YVMA (Homo sapiens, UniProt P04626, INS775YVMA)
- Construct: expressed in transfected cells; host or cells: BaF3 (murine pro-B)
- Sequence (P04626 with tags, fused parts or gaps INS775YVMA): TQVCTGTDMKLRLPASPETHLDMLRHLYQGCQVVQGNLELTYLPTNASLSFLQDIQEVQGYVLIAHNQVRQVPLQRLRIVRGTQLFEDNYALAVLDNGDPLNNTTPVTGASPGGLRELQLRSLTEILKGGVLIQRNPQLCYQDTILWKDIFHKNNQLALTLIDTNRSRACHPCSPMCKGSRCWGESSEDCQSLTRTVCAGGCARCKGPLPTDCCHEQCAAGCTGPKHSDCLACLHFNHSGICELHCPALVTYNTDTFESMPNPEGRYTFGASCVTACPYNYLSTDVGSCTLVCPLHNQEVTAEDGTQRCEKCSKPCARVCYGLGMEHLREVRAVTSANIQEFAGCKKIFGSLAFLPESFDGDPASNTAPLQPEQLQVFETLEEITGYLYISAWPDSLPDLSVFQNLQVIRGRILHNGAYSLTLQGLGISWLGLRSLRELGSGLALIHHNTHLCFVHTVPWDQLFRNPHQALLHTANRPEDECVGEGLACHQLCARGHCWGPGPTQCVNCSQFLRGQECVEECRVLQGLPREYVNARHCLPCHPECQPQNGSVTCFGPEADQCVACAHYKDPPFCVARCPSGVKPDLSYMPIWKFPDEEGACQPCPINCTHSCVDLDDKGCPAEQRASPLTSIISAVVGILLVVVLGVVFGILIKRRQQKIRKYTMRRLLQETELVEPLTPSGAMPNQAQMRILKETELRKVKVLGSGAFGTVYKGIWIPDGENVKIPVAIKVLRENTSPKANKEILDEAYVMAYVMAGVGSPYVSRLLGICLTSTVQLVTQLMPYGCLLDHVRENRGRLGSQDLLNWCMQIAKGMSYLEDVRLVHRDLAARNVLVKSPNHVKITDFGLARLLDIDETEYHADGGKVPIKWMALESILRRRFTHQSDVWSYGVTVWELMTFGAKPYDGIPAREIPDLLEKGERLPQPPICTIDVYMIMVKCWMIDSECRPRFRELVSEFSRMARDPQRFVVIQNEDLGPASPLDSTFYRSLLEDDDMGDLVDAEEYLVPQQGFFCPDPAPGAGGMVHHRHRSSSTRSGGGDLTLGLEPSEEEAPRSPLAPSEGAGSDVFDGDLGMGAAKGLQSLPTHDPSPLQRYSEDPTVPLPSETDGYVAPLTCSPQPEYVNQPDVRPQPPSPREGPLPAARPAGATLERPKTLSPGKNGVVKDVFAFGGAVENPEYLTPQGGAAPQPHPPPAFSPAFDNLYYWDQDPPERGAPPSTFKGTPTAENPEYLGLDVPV
- measurement description: Activity for inhibiting HER2 (Table B), HER2 YVMA
- Assay type: cell-based
- condition summary: read-out: HER2 YVMA, potency code (IC50)
pIC50: −log10 of the molar value.
# pIC50 per entry

Look over these answered cases.
| molecule | data value |
| --- | --- |
| C=CC(=O)Nc1cc2c(Nc3ccc(OCc4ccccn4)c(Cl)c3)ncnc2cc1OC1CC(N(C)C)C1 (stereo not shown) | 7.30 to 7.52 |
| CC#CC(=O)Nc1cc2c(Nc3ccc(OCc4ccccn4)c(Cl)c3)ncnc2cc1OCCN1CCN(C)CC1 | 8.00 to 8.30 |
| C=CC(=O)Nc1cc2c(Nc3ccc(OCc4ccccn4)c(Cl)c3)ncnc2cc1OCCN1CC(F)C1 | 7.00 to 7.30 |

Missing value: pIC50, HER2 YVMA (Homo sapiens, UniProt P04626, INS775YVMA), entry C=CC(=O)Nc1cc2c(Nc3ccc(OCc4ccccn4)c(Cl)c3)ncnc2cc1OCCN1CCCC1 . Fill in?
7.30 to 7.52

Missing value: pIC50, HER2 YVMA (Homo sapiens, UniProt P04626, INS775YVMA), entry C=CC(=O)Nc1cc2c(Nc3ccc(OCc4ccccn4)c(Cl)c3)ncnc2cc1OCC1CN(C)C1 . Fill in?
6.70 to 7.00

Missing value: pIC50, HER2 YVMA (Homo sapiens, UniProt P04626, INS775YVMA), entry C=CC(=O)Nc1cc2c(Nc3ccc(OCc4cccc(F)c4)c(Cl)c3)ncnc2cc1OCCN1CCOCC1 . Fill in?
7.30 to 7.52

Missing value: pIC50, HER2 YVMA (Homo sapiens, UniProt P04626, INS775YVMA), entry C=CC(=O)Nc1cc2c(Nc3ccc(OCc4ccccn4)c(Cl)c3)ncnc2cc1OCCN1CCC(N(C)C)CC1 . Fill in?
6.70 to 7.00

====

# IC50 per entry
- tested system: UniProtKB P00533
- Sequence (P00533 25-1210 N540K): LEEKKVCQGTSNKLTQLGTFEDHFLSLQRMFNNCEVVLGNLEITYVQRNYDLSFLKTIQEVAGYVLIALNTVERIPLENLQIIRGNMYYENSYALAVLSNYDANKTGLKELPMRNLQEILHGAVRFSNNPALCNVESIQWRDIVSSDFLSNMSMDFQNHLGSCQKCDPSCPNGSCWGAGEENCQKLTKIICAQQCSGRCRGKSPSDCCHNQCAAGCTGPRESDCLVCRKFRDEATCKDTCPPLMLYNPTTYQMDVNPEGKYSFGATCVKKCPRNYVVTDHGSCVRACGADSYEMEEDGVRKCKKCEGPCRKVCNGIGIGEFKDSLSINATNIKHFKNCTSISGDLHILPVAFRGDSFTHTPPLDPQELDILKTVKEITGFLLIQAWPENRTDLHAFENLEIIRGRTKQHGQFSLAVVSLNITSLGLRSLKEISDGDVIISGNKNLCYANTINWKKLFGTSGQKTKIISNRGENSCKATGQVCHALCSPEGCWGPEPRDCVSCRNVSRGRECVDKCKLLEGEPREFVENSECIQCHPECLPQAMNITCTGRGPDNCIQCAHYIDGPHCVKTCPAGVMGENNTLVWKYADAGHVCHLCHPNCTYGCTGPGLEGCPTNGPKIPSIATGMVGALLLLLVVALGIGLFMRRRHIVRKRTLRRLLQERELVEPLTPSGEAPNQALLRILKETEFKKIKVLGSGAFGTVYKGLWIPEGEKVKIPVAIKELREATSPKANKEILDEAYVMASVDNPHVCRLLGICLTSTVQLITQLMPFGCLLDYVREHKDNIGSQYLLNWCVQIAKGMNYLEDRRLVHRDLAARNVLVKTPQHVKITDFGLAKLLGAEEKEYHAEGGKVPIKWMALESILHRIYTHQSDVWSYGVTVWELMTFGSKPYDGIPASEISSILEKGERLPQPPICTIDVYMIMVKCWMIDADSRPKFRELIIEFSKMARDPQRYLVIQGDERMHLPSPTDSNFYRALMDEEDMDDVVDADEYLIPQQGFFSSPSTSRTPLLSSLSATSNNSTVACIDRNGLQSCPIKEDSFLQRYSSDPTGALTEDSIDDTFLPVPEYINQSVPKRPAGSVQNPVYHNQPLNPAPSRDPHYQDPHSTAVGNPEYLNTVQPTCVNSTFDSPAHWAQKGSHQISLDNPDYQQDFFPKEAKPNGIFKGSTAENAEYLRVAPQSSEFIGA
- measurement description: BaF3 cell proliferation assay, EGFR WT (Table A)
- Format: cell-based
- condition summary: potency code, 3 days, CellTiterGlo, read-out: EGFR WT (Activity for Inhibiting EGFR)

Look over these answered cases.
| molecule | tested system | data value |
| --- | --- | --- |
| C=CC(=O)Nc1cc2c(Nc3ccc(OCc4ccccn4)c(Cl)c3)ncnc2cc1C#CC1CCCN1 (stereo not drawn) | UniProtKB P00533 | 500 to 1000 nM |
| C=CC(=O)Nc1cc2c(Nc3ccc(OCc4ccccn4)c(Cl)c3)ncnc2cc1OCCN(C)C1CCOC1 (stereo not drawn) | UniProtKB P00533 | 500 to 1000 nM |

For the molecule C=CC(=O)Nc1cc2c(Nc3ccc(OCc4ccccn4)c(Cl)c3)ncnc2cc1OCCN1CC(OC)C1 , what IC50 is on record?
300 to 500 nM

For the molecule C=CC(=O)Nc1cc2c(Nc3ccc(OCc4cccc(C)n4)c(Cl)c3)ncnc2cc1OCCN1CCOCC1 , what IC50 is on record?
500 to 1000 nM

For the molecule C=CC(=O)Nc1cc2c(Nc3ccc(Oc4ccc(C)nc4)c(C)c3)ncnc2cc1OC1CCN(C)C1 (stereo not drawn) , what IC50 is on record?
500 to 1000 nM

For the molecule C=CC(=O)Nc1cc2c(Nc3ccc(Oc4cccnc4)cc3)ncnc2cc1OCCN1CCOCC1 , what IC50 is on record?
> 1000 nM

For the molecule C=CC(=O)Nc1cc2c(Nc3ccc(OCc4cnccn4)c(Cl)c3)ncnc2cc1OCCN1CC(OC)C1 , what IC50 is on record?
> 1000 nM

For the molecule C=CC(=O)Nc1cc2c(Nc3ccc(OCc4ccccn4)c(Cl)c3)ncnc2cc1O[C@@H]1CCN(C)C1 , what IC50 is on record?
200 to 300 nM

For the molecule C=CC(=O)Nc1cc2c(Nc3ccc(Oc4ccccc4)cc3)ncnc2cc1C#C[C@@H]1[C@H]2CN(C)C[C@@H]12 , what IC50 is on record?
100 to 200 nM

For the molecule C=CC(=O)Nc1cc2c(Nc3ccc(OCc4cccc(F)c4)c(Cl)c3)ncnc2cc1OCCCN1CCOCC1 , what IC50 is on record?
300 to 500 nM

For the molecule C=CC(=O)Nc1cc2c(Nc3ccc(OCc4cccc(F)c4)c(Cl)c3)ncnc2cc1N(C)CCN1CCOCC1 , what IC50 is on record?
> 1000 nM

For the molecule C=CC(=O)Nc1cc2c(Nc3cnc(NCc4ccccn4)c(Cl)c3)ncnc2cc1OCCN1CCOCC1 , what IC50 is on record?
500 to 1000 nM

For the molecule C=CC(=O)Nc1cc2c(Nc3ccc(OCc4ccccn4)cn3)ncnc2cc1OC1CCN(C)C1 (stereo not drawn) , what IC50 is on record?
> 1000 nM

For the molecule C=CC(=O)Nc1cc2c(Nc3ccc(Oc4ccc(Cl)c(F)c4)cc3)ncnc2cc1OCCN1CCOCC1 , what IC50 is on record?
500 to 1000 nM

For the molecule C=CC(=O)Nc1cc2c(Nc3ccc(OCc4ccccn4)c(Cl)c3)ncnc2cc1O[C@H]1CCCN(C)CC1 , what IC50 is on record?
200 to 300 nM
